Target: KRasG12C (Homo sapiens, UniProt P01116, G12C)
Construct: biotin (biotinylated); made in house
Sequence (P01116 1-188 isoform P01116-2 G12C): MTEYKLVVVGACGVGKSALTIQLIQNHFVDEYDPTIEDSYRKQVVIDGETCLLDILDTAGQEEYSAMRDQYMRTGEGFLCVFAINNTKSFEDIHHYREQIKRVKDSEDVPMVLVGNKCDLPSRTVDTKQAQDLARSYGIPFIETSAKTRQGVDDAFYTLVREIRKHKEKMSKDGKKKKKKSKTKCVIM
Assay: KRasG12C functional assay (HTRF, SOS-mediated nucleotide exchange / Raf RBD binding)
Type: biochemical
Settings: 4 hrs incubation with GDP loaded biotinylated KRasG12C; single experiment or average of two or more; read-out: KRasG12C functional assay IC50 value
pIC50: −log10 of the molar value.
VALUE TYPE: pIC50

MOLECULE	pIC50
C=CC(=O)N1CCN2c3ncnc4c(F)c(-c5c(F)ccc6[nH]cnc56)c(Cl)c(c34)OC[C@@H]2C1 (single isomer, unassigned) [Example 21]	5.88

(A) CN(C)C/C=C/C(=O)N1CCN2c3ncnc4c(F)c(-c5c(O)cccc5F)c(Cl)c(c34)OC[C@@H]2C1 (single isomer, unassigned) [Example 14]
(B) C=CC(=O)N1CCN2c3ncnc4c(F)c(-c5c(F)ccc6[nH]cnc56)c(Cl)c(c34)OC[C@@H]2C1 (single isomer, unassigned) [Example 20]
*Q* In the pair A and B , the larger recorded pIC50 belongs to which? Respond using the label that marks the chosen record.
*A* B

(P) C=CC(=O)N1CCN2c3ncnc4c(Cl)c(-c5c(O)cccc5F)c(F)c(c34)OC[C@@H]2C1 (single isomer, unassigned) [Example 44]
(Q) C=CC(=O)N1CCN2c3ncnc4c(F)c(-c5c(F)ccc6[nH]nnc56)c(Cl)c(c34)OC[C@@H]2C1 (single isomer, unassigned) [Example 27]
(R) C=CC(=O)N1CCN2c3ncnc4c(F)c(-c5c(C)ccc6nc[nH]c(=O)c56)c(Cl)c(c34)OC[C@@H]2C1 (single isomer, unassigned) [Example 6]
*Q* Order by pIC50, ascending. # list labels per requested ordering
*A* Q, R, P
(Q: 4.92, R: 7.01, P: 7.21)

---

Biological target: KRasG12C (Homo sapiens, UniProt P01116, G12C)
Construct: biotin (biotinylated); made in house
Test: KRasG12C functional assay (HTRF, SOS-mediated nucleotide exchange / Raf RBD binding)
Format: biochemical
Details: 4 hrs incubation with GDP loaded biotinylated KRasG12C; single experiment or average of two or more; read-out: KRasG12C functional assay IC50 value
pIC50: −log10 of the molar value.
VALUE TYPE: pIC50

The cases that follow already have their pIC50 on record.
COMPOUND	TEST TARGET	pIC50
Cc1ccc2[nH]ncc2c1-c1c(Cl)c2c3c(ncnc3c1F)N1CCN(C(=O)/C=C/CN(C)C)C[C@H]1CO2 (single isomer, unassigned) [Example 31]	KRasG12C (Homo sapiens, UniProt P01116, G12C)	5.17
C=CC(=O)N1CCN2c3ncnc4c(F)c(-c5c(F)ccc6cc[nH]c(=O)c56)c(Cl)c(c34)OC[C@@H]2C1 (single isomer, unassigned) [Example 28]	KRasG12C (Homo sapiens, UniProt P01116, G12C)	8.30
C=CC(=O)N1CCN2c3ncnc4c(F)c(-c5c(F)ccc6c5ncn6C)c(Cl)c(c34)OC[C@@H]2C1 (single isomer, unassigned) [Example 24]	KRasG12C (Homo sapiens, UniProt P01116, G12C)	7.01

(a) C=CC(=O)N1CCN2c3ncnc4c(F)c(-c5c(F)ccc6cc[nH]c(=O)c56)c(Cl)c(c34)OC[C@@H]2C1 (single isomer, unassigned) [Example 29]
(b) Cc1ccc2[nH]cnc2c1-c1c(Cl)c2c3c(ncnc3c1F)N1C[C@@H](C)N(C(=O)/C=C/CN(C)C)C[C@H]1CO2 (single isomer, unassigned) [Example 51]
(c) C=CC(=O)N1CCN2c3ncnc4c(F)c(-c5c(C)cccc5O)c(Cl)c(c34)OC[C@@H]2C1 (single isomer, unassigned) [Example 12]
(d) C=CC(=O)N1CCN2c3ncnc4c(F)c(-c5n[nH]c6ccccc56)c(Cl)c(c34)OC[C@@H]2C1
*Q* Order each entry by recorded pIC50, climbing from the minimum. Please respond with the labels ordered as the question requires.
*A* a, b, d, c
